System: CAL-148
condition_set: 72 h
Catalogue of EC50, CellTox Green values
Give just the numeric value; µM need not be written.

Example results:
C#Cc1cccc(Nc2ncnc3cc(OC)c(OCCCCCCC(=O)NO)cc23)c1
1.7
CC(C)C[C@H](NC(=O)[C@H](Cc1ccccc1)NC(=O)c1cnccn1)B(O)O
0.0172

Recorded EC50, CellTox Green (compound CC(=O)O[C@H]1C(=O)[C@@]2(C)[C@H]([C@H](OC(=O)c3ccccc3)[C@]3(O)C[C@H](OC(=O)[C@H](O)[C@@H](NC(=O)c4ccccc4)c4ccccc4)C(C)=C1C3(C)C)[C@]1(OC(C)=O)CO[C@@H]1C[C@@H]2O ): 0.00116
